assayed-system: HER2 (Homo sapiens)
Construct: HER2 c-terminal kinase domain; made in house
Sequence (P04626 720-987 limits assumed): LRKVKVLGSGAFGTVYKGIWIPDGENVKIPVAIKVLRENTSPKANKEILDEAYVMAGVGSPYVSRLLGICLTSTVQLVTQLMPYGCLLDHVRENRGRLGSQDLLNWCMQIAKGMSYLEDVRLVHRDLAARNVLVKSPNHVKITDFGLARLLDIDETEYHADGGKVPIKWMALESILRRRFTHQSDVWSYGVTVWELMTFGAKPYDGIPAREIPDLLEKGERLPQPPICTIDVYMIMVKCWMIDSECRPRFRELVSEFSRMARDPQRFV
experiment-description: Biochemical flash-plate based kinase assay, HER2
assay-setup: only a range over the listed compounds is given; read-out: HER2 inhibition IC50
pIC50: −log10 of the molar value. Counter-ions that a name gives are not always drawn.
measure-name: pIC50

O=C(NO)c1ccc(-c2ccc3ncnc(Nc4ccc(OCc5cccc(F)c5)c(Cl)c4)c3c2)o1 [[6], hydrochloride monohydrate]	6.13 to 8.70

====

assayed-system: EGFR/HER1 (Homo sapiens, UniProt P00533)
Construct: EGFR/HER1 C-terminal kinase domain
Sequence (P00533 712-979 limits assumed): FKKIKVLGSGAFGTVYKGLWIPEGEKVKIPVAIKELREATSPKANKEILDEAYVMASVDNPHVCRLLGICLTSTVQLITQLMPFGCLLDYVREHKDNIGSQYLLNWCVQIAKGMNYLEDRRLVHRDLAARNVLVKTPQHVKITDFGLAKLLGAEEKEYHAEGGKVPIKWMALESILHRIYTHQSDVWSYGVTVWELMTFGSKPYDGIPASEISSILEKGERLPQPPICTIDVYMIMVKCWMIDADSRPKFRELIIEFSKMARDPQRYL
experiment-description: Biochemical flash-plate based kinase assay, EGFR/HER1
assay-setup: only a range over the listed compounds is given; read-out: EGFR/HER1 inhibition IC50
Excerpt: Active kinase proteins were either obtained from commercial suppliers (Abl, PDGF-Rβ ProQinase, Freiburg/Germany; AblT^315I: Millipore/Upstate, Billerica/USA; PKA: InvitroGen/Panvera, Carlsbad/USA) or prepared in-house (KDR, c-terminal kinase domain AA790-1356, HER2 c-terminal kinase domain, EGFR/HER1 C-terminal kinase domain). […] Plates were washed three times with 0.9% w/v NaCl and quantitated by liquid scintillation counting.
pIC50: −log10 of the molar value. Where a name gives a salt, the structure may show the parent alone.
measure-name: pIC50

O=C(/C=C/c1ccc(-c2ccc3ncnc(Nc4ccc(OCc5cccc(F)c5)c(Cl)c4)c3c2)o1)NO [[2], hydrochloride monohydrate]	6.82 to 8.66
C#Cc1cccc(Nc2ncnc3ccc(NC(=O)c4ccc(C(=O)Nc5ccccc5N)nc4)cc23)c1 [[36]]	6.82 to 8.66
O=C(NO)c1ccc(-c2ccc3ncnc(Nc4ccc(OCc5cccc(F)c5)c(Cl)c4)c3c2)s1 [[4], hydrochloride dihydrate]	6.82 to 8.66
